testMethodNotes: APR_HepG2_MitoMass_24hr: Apredica 24-hour HepG2 Assay for Mitochondrial Mass (AID 2282912)
settings: high-content imaging, actives raise or lower the signal
Description: APR_HepG2_24hr is a cell-based, multiplexed-readout assay that uses HepG2, a human liver cell line, with measurements taken at 24 hours after chemical dosing in a 384-well plate.APR_HepG2_MitoMass_24hr is one of 10 assay component(s) measured or calculated from the APR_HepG2_24hr assay. […] This assay endpoint, APR_HepG2_MitoMass_24hr, was analyzed with bidirectional fitting relative to DMSO as the negative control and baseline of activity. […]
The source made the active and inactive calls. How the source made its calls: active means hit-call score of the fitted dose curve at least 0.9, where 1 is the maximum; inactive means score below 0.9.
Respond only with the outcome that fits, drawn from y (active), n (inactive)

Query :: In this assay, the call recorded for O=c1n(CC2CO2)c(=O)n(CC2CO2)c(=O)n1CC1CO1 (configuration not stated) was what?
Result :: y

Query :: Which result was noted for this compound in the test: CCCN(C1CCN(C(=O)C2CCNCC2)CC1)[C@@H]1CCc2ccc(OC)cc2C1
Result :: y

Query :: // outcome(item) with item = CC(C)CC(C)(O)C#CC(C)(O)CC(C)C (configuration not stated)
Result :: n

Query :: What was the test verdict on CC(C)CCCCCCCOC(=O)CCCCC(=O)OCCCCCCCC(C)C ?
Result :: n

Query :: What is the recorded call for this compound in the test? Nc1nc2ncc(CNc3ccc(C(=O)N[C@@H](CCC(=O)O)C(=O)O)cc3)nc2c(=O)[nH]1
Result :: n

Query :: Given COc1ccc(/C=C/S(=O)(=O)NC(=O)c2ccc(C)cc2Cl)cc1 , state the outcome it received in this test.
Result :: n

Query :: Could you check what this test reported for CC(=O)OCCC(C)C ?
Result :: n

---

Read-out: Cytochrome P450 3A7 (Homo sapiens) (UniProt P24462)
Sequence (P24462 whole entry, looked up): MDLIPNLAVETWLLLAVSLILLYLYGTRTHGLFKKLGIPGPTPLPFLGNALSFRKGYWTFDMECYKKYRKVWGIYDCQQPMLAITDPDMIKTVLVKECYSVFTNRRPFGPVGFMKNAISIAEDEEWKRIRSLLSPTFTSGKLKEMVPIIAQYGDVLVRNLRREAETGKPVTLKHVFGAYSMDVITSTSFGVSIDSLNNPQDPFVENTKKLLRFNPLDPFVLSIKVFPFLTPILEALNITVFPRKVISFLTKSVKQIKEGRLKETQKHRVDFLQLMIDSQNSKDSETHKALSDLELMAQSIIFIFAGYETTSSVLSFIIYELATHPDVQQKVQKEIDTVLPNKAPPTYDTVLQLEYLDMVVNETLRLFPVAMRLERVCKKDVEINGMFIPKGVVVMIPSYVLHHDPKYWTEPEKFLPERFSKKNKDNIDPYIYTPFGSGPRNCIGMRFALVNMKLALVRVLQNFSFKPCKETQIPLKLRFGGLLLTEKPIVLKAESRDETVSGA
testMethodNotes: LTEA_HepaRG_CYP3A7: Life Technologies and Expression Analysis (LTEA) Assay for CYP3A7 using HepaRG (AID 2283492)
settings: mRNA level, 48 h; actives raise or lower the signal
Calls of active or inactive are those of the source. The calls were made as follows: active = hit-call score of the fitted dose curve at least 0.9, where 1 is the maximum; inactive = score below 0.9.
Answer with one of the outcomes active, inactive

Query :: Which result was noted for this compound in the test: O=C1CCC(N2C(=O)c3ccccc3C2=O)C(=O)N1 (stereo not drawn)
Result :: inactive

Query :: Could you check what this test reported for O=c1[nH]c2ccc(S(=O)CCN3CCC(Cc4ccc(F)cc4)CC3)cc2o1 (stereo not drawn) ?
Result :: active

Query :: Dear colleague, could you share the recorded outcome for CCOCCO when you have a moment?
Result :: inactive

Query :: I would be grateful if you could indicate the recorded call for CC(=O)c1ccc2c(c1)[C@H](NC(=O)c1ccc(F)cc1)[C@@H](O)C(C)(C)O2 .
Result :: active

Query :: Which outcome did this test record for the compound CCCCCCCCO ?
Result :: inactive

Query :: Tell me the recorded outcome of this test for CCN(C(=O)c1cc(C)cc(OC[C@H](C)Nc2ccncc2)c1)C(C)C .
Result :: active

Query :: For this compound, state the assay outcome: Fc1ccccc1[C@@H](F)COC1CCC(Nc2ncnc3[nH]ncc23)CC1 (stereo partly drawn)
Result :: active

Query :: Answer briefly: the call reported for CC/C(=C\C(=N/O)C(N)=O)C(C)[N+](=O)[O-] (stereo not drawn) in this assay.
Result :: inactive

---

assayTarget: human Peripheral-type Benzodiazepine Receptor (PBR), TSPO (gene 706)
testMethodNotes: NVS_MP_hPBR: NovaScreen (NVS) Membrane Protein Assay for human Peripheral-type Benzodiazepine Receptor (PBR) (AID 2283331);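 further: hits reduce radioligand binding relative to DMSO baseline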
Records with an inconclusive call do not appear. Active and inactive are the calls of the source. How the source made its calls: active means hit-call score of the fitted dose curve at least 0.9, where 1 is the maximum; inconclusive means response in the unintended direction; inactive means score below 0.9.
measurementType: AC50

structurenotation=COc1cccc(-c2ccc(/C=C\CN3CCCCCC3)cc2Cl)c1 assaytarget="human Peripheral-type Benzodiazepine Receptor (PBR), TSPO (gene 706)" measurementtype=AC50 measuredvalue="7.83 µM (active)"
structurenotation=O=C(O)c1cccc(N(Cc2cccnc2)c2ccc(OC(F)F)c(OC(F)F)c2)c1 assaytarget="human Peripheral-type Benzodiazepine Receptor (PBR), TSPO (gene 706)" measurementtype=AC50 measuredvalue=inactive
structurenotation=CC(C)(O)c1coc(S(=O)(=O)NC(=O)Nc2c3c(cc4c2CCC4)CCC3)c1 assaytarget="human Peripheral-type Benzodiazepine Receptor (PBR), TSPO (gene 706)" measurementtype=AC50 measuredvalue=inactive

---

Read-out: Monocyte Chemoattractant Protein-1 (MCP1), CCL2 (gene 6347)
testMethodNotes: BSK_LPS_MCP1: BioMAP Diversity Plus: LPS Assay for Monocyte Chemoattractant Protein-1 (MCP1) Biomarker Activity (AID 2283081)
settings: primary human HUVEC with PBMC; actives raise or lower the signal
Activity calls are given as the source filed them. How the source made its calls: active means hit-call score of the fitted dose curve at least 0.9, where 1 is the maximum; inactive means score below 0.9.
Pick from active, inactive when you respond.

Query :: Which result was noted for this compound in the test: O=c1n(CC2CO2)c(=O)n(CC2CO2)c(=O)n1CC1CO1 (centres undefined)
Result :: active

Query :: # lookup: test call for O=C1CCC(N2C(=O)c3ccccc3C2=O)C(=O)N1 (centres undefined)
Result :: inactive

Query :: What call does the record list for NC(=O)NO ?
Result :: inactive

Query :: Record request — test call for Cc1ccc(S(=O)(=O)O)cc1C
Result :: inactive

Query :: Identify the outcome logged in this assay for the compound shown: O=C(O)CCN(C1(C(=O)NO)CCCC1)S(=O)(=O)c1ccc(Oc2ccc(F)cc2)cc1
Result :: inactive

Query :: Short answer needed: outcome of this test for CC[C@H]1CC[C@H](NCc2cc3c(cc2OC)[C@H]2C[C@H]2C(=O)N3C)[C@H](c2ccccc2)N1 ?
Result :: inactive

Query :: GET /call?item= CC(=O)OCCC(C)C returns the recorded outcome of this test.
Result :: inactive

Query :: For CC(C)=CCC/C(C)=C/CO , what call appears in the results of this test?
Result :: inactive

Query :: Hi team, can someone confirm the assay call for CCOCCOCCOCCO ?
Result :: inactive

Query :: Any idea what this test logged for CCCC(=O)OCC ?
Result :: inactive

Query :: # lookup: test call for CC[C@H](C)C(=O)O[C@H]1C[C@@H](C)C=C2C=C[C@H](C)[C@H](CC[C@@H]3C[C@@H](O)CC(=O)O3)[C@H]21
Result :: inactive

Query :: // return assay outcome for Cc1ccc(O)cc1
Result :: inactive

Query :: Outcome? CC(=O)c1ccc2c(c1)[C@H](NC(=O)c1ccc(F)cc1)[C@@H](O)C(C)(C)O2
Result :: inactive

Query :: Dear all, I need the recorded test outcome for O=C(O)c1cccc(N(Cc2cccnc2)c2ccc(OC(F)F)c(OC(F)F)c2)c1 , thank you.
Result :: active

Query :: Could you please tell me the result logged for CCOC(=O)CC(CC(=O)OCC)(OC(C)=O)C(=O)OCC in this assay?
Result :: inactive

Query :: Per the assay record, what outcome was assigned to O=c1[nH]c2ccc(S(=O)CCN3CCC(Cc4ccc(F)cc4)CC3)cc2o1 (centres undefined) ?
Result :: inactive

Query :: Hey, what did the test say about CCCCC(CC)COC(=O)c1ccc(C(=O)OCC(CC)CCCC)cc1 (centres undefined) ?
Result :: inactive

Query :: Query: recorded result category for Cc1c(-c2cccnc2)c2ccccc2n1CCCCC(=O)O in this test
Result :: inactive

Query :: I'd appreciate the recorded outcome for On1ccccc1=S from this test.
Result :: inactive

---

assayTarget: Bile acid receptor (Homo sapiens)
testMethodNotes: OT_FXR_FXRSRC1_0480: Odyssey Thera (OT) 8-hour HEK293T Protein-Complementation Assay for Farnesoid X receptor/SRC-1 Co-activator (AID 2283383)
Procedure: OT_FXR_FXRSRC1_0480 is a cell-based assay that uses HEK293T, a human kidney cell line, with measurements taken at 8 hours after chemical dosing in a 384-well plate.OT_FXR_FXRSRC1_0480 is one of one assay component(s) measured or calculated from the OT_FXR_FXRSRC1_0480 assay. […] This assay endpoint, OT_FXR_FXRSRC1_0480, was analyzed in the positive analysis fitting direction relative to DMSO as the negative control and baseline of activity. […]
Inconclusive results are not listed. Calls of active or inactive are those of the source. The calls were made as follows: active = hit-call score of the fitted dose curve at least 0.9, where 1 is the maximum; inconclusive = response in the unintended direction; inactive = score below 0.9.
# output must be one of T for active, F for inactive

Query :: For CCCCC(CC)COC(=O)c1ccc(C(=O)OCC(CC)CCCC)cc1 (stereo not drawn) , which call appears in the assay record?
Result :: F

Query :: Look up the recorded call for CCOC(=O)CC(CC(=O)OCC)(OC(C)=O)C(=O)OCC in this test.
Result :: F

Query :: Which outcome did this test record for the molecule CC(C)=CCC/C(C)=C/CO ?
Result :: F

Query :: Dear all, I need the recorded test outcome for CNS(=O)(=O)c1cc(C(=O)N2CCC(CCN3C4CCC3CC(n3c(C)nc5ccccc53)C4)(c3cccc(F)c3)CC2)c(Cl)cc1F (stereo not drawn) , thank you.
Result :: T

Query :: In this assay, the call recorded for COc1ccc(/C=C/S(=O)(=O)NC(=O)c2ccc(C)cc2Cl)cc1 was what?
Result :: F

Query :: Answer briefly: the call reported for COCCOCCOCCOC in this assay.
Result :: F

Query :: Status in this test for Cc1c(-c2cccnc2)c2ccccc2n1CCCCC(=O)O ?
Result :: F

Query :: Dear colleague, could you share the recorded outcome for CC[C@H](C)C(=O)O[C@H]1C[C@@H](C)C=C2C=C[C@H](C)[C@H](CC[C@@H]3C[C@@H](O)CC(=O)O3)[C@H]21 when you have a moment?
Result :: T
